Source: PubChem BioAssay (NCI)

Test system: OVCAR-3 ovarian
TEST_DETAILS: NCI tumour cell line growth inhibition, 48 h
Quick reference: TGI of the listed items.

MOLECULE: CC(C)C(NC(=O)Oc1ccccc1)C(=O)NC1c2c(Br)sc(Br)c2C(=O)C1O (stereo unspecified)
REPORTED_METRIC: TGI
OBSERVED_VALUE: 8.21 µM

response.value for C=C(C)C(=O)O[C@@H]1C[C@@]2(C)O[C@@H]2C[C@H](O)/C(C)=C/[C@H]2OC(=O)C(=C)[C@@H]21 (field: TGI) = > 100 µM

response.value for O=S1C(=c2ccc(=C3Sc4ccccc4S3)cc2)Sc2ccccc21 (stereo unspecified) (field: TGI) = > 100 µM

response.value for CON(C)C(=O)C(C)N(Cc1ccccc1)Cc1ccccc1 (stereo unspecified) (field: TGI) = > 100 µM

response.value for O=C1NC(=NCc2ccccc2)S/C1=C\c1ccc2ncccc2c1 (field: TGI) = > 25 µM

response.value for Cc1[nH]c(=O)nc2sc(=NC3CCCCC3)n(C3CCCCC3)c(=O)c12 (field: TGI) = > 100 µM

response.value for C=C1c2nc3ccccc3n2C=C(c2ccc(OC)cc2)N1c1ccc(OC)cc1 (field: TGI) = 32.2 µM

###

System: PC-3 prostate
TEST_DETAILS: NCI tumour cell line growth inhibition, 48 h
REPORTED_METRIC: TGI

Below, each entry is followed by its recorded TGI result.
COMPOUND: CC#Cc1ccc(-c2ccccc2)s1
MEASURED_ON: PC-3 prostate
TGI: > 100 µM
--
COMPOUND: CC(=O)OCc1ccc2c(c1)C(O)NC(=O)O2 (stereo not drawn)
MEASURED_ON: PC-3 prostate
TGI: > 100 µM

With those in mind, consider the next compound.
response.value for COc1cc(S(=O)(=O)Nc2ccc(-c3csc(N4C(=O)CSC4c4cccc(Oc5ccccc5)c4)n3)cc2)ccc1Cl (stereo not drawn) (field: TGI) = > 100 µM

###

System: CAKI-1 renal
TEST_DETAILS: NCI tumour cell line growth inhibition, 48 h; in the data active means GI50 below about 0.43 µM; inactive means the rest
Respond using exactly one of the listed classes: active, inactive

Task item: For CC(C)[C@@H]1NC(=O)[C@]2(C)CSC(=N2)c2ccnc(c2)CNC(=O)C[C@@H](/C=C/CCS)OC1=O , which call appears in the assay record?
Reply: inactive

Task item: For CN1CCN(c2ccc(Nc3ncc(Cl)c(NC[C@@H]4CCCO4)n3)cc2)CC1 , which call appears in the assay record?
Reply: inactive

Task item: For COc1cc(/C=C2\CN(S(=O)(=O)c3ccc(C)cc3)C/C(=C\c3cc(CN4CCCC4)c(O)c(OC)c3)C2=O)cc(CN2CCCC2)c1O , which call appears in the assay record?
Reply: inactive

###

Tested on: NCI-H522 lung
TEST_DETAILS: NCI tumour cell line growth inhibition, 48 h
Quick reference: TGI of the listed items.

COMPOUND: CC1=C/C(=N\NC(N)=S)C(C(O)(C(F)(F)F)C(F)(F)F)C(C)(C)C1 (stereo not given)
TGI: > 10 µM
//
COMPOUND: CCOC(=O)c1cc(-c2ccc(OC)cc2)c([N+](=O)[O-])n1C
TGI: > 10 µM
//
COMPOUND: COc1cccc(-c2cc(=O)c3cc(N4CCCCC4)ccc3[nH]2)c1
TGI: > 21 µM
//
COMPOUND: COC(=O)c1ccc(Cc2cc(Cc3ccc(C(=O)OC)cc3)cc(Cc3ccc(C(=O)OC)cc3)c2)cc1
TGI: > 25 µM

With those in mind, consider the next compound.
response.value for O=C1c2c(F)c(F)c(F)c(F)c2C(=O)N1c1ccc(F)cc1F (field: TGI) = > 25 µM

###

Tested on: SK-OV-3 ovarian
TEST_DETAILS: NCI tumour cell line growth inhibition, 48 h
REPORTED_METRIC: TGI

Below, each entry is followed by its recorded TGI result.
MOLECULE: COc1cc(-c2nc3sccn3c2-c2ccnc(NCCNS(=O)(=O)c3ccc(F)cc3)n2)ccc1F
TGI: > 100 µM
--
MOLECULE: CCCCCCOc1ccc(/C=N/Nc2cc(C)nc3ccc(Cl)cc23)cc1
TGI: 3.11 µM
--
MOLECULE: COc1cc(S(=O)(=O)Nc2ccc(-c3csc(N4C(=O)CSC4c4cccc(Oc5ccccc5)c4)n3)cc2)ccc1Cl (configuration not stated)
TGI: > 100 µM
--
MOLECULE: c1ccc(Nc2ncc(-c3ccccc3)o2)cc1
TGI: > 25 µM
--
MOLECULE: COCCn1cc(-c2nc(-c3cc4cccnc4[nH]3)cs2)c2cc(OC)ccc21
TGI: 11.6 µM

response.value for COc1ccc(C(C)NNC(=O)c2ccncc2)cc1OC (configuration not stated) (field: TGI) = > 100 µM

response.value for O=C(NC1C=CCC2C(=O)N(c3ccccc3)C(=O)C12)OCc1ccccc1 (configuration not stated) (field: TGI) = > 100 µM

###

Test system: CAKI-1 renal
TEST_DETAILS: NCI tumour cell line growth inhibition, 48 h
REPORTED_METRIC: TGI

Below, each entry is followed by its recorded TGI result.
MOLECULE: CC1=NN(c2nc(N)nc(COc3ccc(N)cc3)n2)C(C)(C)C1
TGI: > 100 µM
//
MOLECULE: COc1ccc(C(c2cc(OC)c(OC)c(OC)c2)n2cncn2)cc1O (configuration not stated)
TGI: > 100 µM
//
MOLECULE: COc1ccc(C2=CC(C(C)=C(C(N)=O)C(N)=O)C=C(c3ccc(Br)cc3)C2)c(OC)c1 (configuration not stated)
TGI: > 100 µM
//
MOLECULE: CCOC(=O)c1csc(NC(=O)CN2CCCC2)n1
TGI: > 100 µM
//
MOLECULE: c1ccc(-c2n(Cc3ccc4ccccc4n3)cc[n+]2Cc2ccc3ccccc3c2)cc1
TGI: 3.54 µM

response.value for CC1(C)CC(c2c[nH]c3ccccc23)=CC2=Nc3ccccc3C21O (configuration not stated) (field: TGI) = > 100 µM

response.value for CN1C(=O)C(=O)N2c3ccc(Cl)cc3C3(c4ccccc4)N=CC12O3 (configuration not stated) (field: TGI) = 42.7 µM

###

Quick reference: GI50 of the listed items.
System: HCT-116 colon
TEST_DETAILS: NCI tumour cell line growth inhibition, 48 h

COMPOUND: COc1ccc(C(c2cc(OC)c(OC)c(OC)c2)n2cncn2)cc1O (centres undefined)
OBSERVED_VALUE: 448 nM

COMPOUND: CN(C)CC(O)c1ccc(/C=C/c2ccc(Cl)cc2)cc1 (centres undefined)
OBSERVED_VALUE: 1460 nM

response.value for CC[C@@H](c1ccc(O)c(O)c1)[C@@H](CC)c1ccc(O)c(O)c1 (field: GI50) = 4230 nM

response.value for NCCNCCNCCN (field: GI50) = > 100000 nM

###

Test system: LOX IMVI melanoma
TEST_DETAILS: NCI tumour cell line growth inhibition, 48 h
REPORTED_METRIC: TGI

Below, each entry is followed by its recorded TGI result.
COMPOUND: CCOC(=O)/C(C#N)=C/c1coc2cc(C)cc(C)c2c1=O
TGI: > 100 µM
--
COMPOUND: COc1cc(S(=O)(=O)Nc2ccc(-c3csc(N4C(=O)CSC4c4cccc(Oc5ccccc5)c4)n3)cc2)ccc1Cl (stereo not given)
TGI: > 100 µM
--
COMPOUND: Cc1ccc(Nc2nc(NNC(=O)Cc3ccccc3)nc(NNC(=O)c3ccncc3)n2)cc1
TGI: > 10 µM
--
COMPOUND: CC(=O)OCc1ccc2c(c1)C(O)NC(=O)O2 (stereo not given)
TGI: > 100 µM

With those in mind, consider the next compound.
response.value for Cc1[nH]c(=O)nc2sc(=NC3CCCCC3)n(C3CCCCC3)c(=O)c12 (field: TGI) = > 100 µM

###

System: DU-145 prostate
TEST_DETAILS: NCI tumour cell line growth inhibition, 48 h
Quick reference: TGI of the listed items.

Below, each entry is followed by its recorded TGI result.
COMPOUND: CC(C)C(NC(=O)Oc1ccccc1)C(=O)NC1c2c(Br)sc(Br)c2C(=O)C1O (stereo not drawn)
TGI: > 25 µM

COMPOUND: CCNC(=O)C#Cc1ccc2c(C(=Nc3ccc(CN(C)C)cc3)c3ccccc3)c(O)[nH]c2c1
TGI: > 10 µM

With those in mind, consider the next compound.
response.value for Cc1cc(Nc2ccc(C)c(Cl)c2)n2nc(C(F)(F)F)nc2n1 (field: TGI) = 38.9 µM

###

System: HT29 colon
TEST_DETAILS: NCI tumour cell line growth inhibition, 48 h
REPORTED_METRIC: TGI

Observed TGI, HT29 colon, N#Cc1nc(-c2cnccn2)oc1N : > 100 µM

Observed TGI, HT29 colon, O=C(/C=C/c1c(O)ccc2ccccc12)c1ccc([N+](=O)[O-])cc1 : > 100 µM

Observed TGI, HT29 colon, Cc1ccc(S(=O)(=O)N2CCC2c2ccccc2)cc1 (stereo unspecified) : > 100 µM
